- tgt: B1R receptor of the rat (rB1R) (Rattus norvegicus)
- Construct: expressed in transfected cells; host or cells: CHO K1 cells
- experimentDescription: Functional investigation on the bradykinin receptor 1 (B1R), FLIPR Ca2+ assay, rB1R cells
- Format: cell-based
measure: inhibition at 10 µM

Give inhibition at 10 µM for each listed item.
1. COc1cc(C)c(C(=O)N(C)Cc2nc3cccc(C(=O)N4CCC5(CC4)CCN(c4ccncc4)C5)c3[nH]2)c(C)c1
2. COc1cc(C)c(S(=O)(=O)N(C)c2nc3ccc(C(=O)N4CCC5(CC4)CCN(c4ccncc4)C5)cc3n2C)c(C)c1
3. COc1cc(C)c(S(=O)(=O)N(C)Cc2nc3c(C(=O)N4CCC5(CC4)CCN(c4ccncc4)CC5)cccc3s2)c(C)c1

output:
101%
48%
93%

###

- tgt: human B1R receptor (hB1R) (Homo sapiens, UniProt P46663)
- Construct: expressed in transfected cells; host or cells: CHO K1 cells
- Sequence (P46663 whole entry): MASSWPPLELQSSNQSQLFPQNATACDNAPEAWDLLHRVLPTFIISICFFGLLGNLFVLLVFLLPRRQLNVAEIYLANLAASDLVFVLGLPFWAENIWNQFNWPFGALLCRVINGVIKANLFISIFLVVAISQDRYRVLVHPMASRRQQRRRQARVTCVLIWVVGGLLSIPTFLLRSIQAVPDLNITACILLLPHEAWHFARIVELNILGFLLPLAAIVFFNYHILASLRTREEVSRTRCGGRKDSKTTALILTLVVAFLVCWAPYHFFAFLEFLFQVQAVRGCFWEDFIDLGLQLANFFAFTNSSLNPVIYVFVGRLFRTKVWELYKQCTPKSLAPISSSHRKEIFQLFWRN
- experimentDescription: Functional investigation on the bradykinin receptor 1 (B1R), FLIPR Ca2+ assay, hB1R cells
- Format: cell-based
- Excerpt: The agonistic or antagonistic action of substances can be quantified on the bradykinin receptor 1 (B1R) of the human and rat species with ectopically expressing cell lines (CHO K1 cells) and with the aid of a Ca^2+-sensitive dyestuff (Fluo-4) in a fluorescent imaging plate reader (FLIPR). […] The agonistic or antagonistic action of substances can be determined on the bradykinin receptor 1 (B1R) of the human and rat species with the following assay. […]
Kindly return TRUE if reported inhibition at 10 µM is no lower than 80%; return FALSE if it is lower.

Worked cases, answers included:
COc1cc(C)c(S(=O)(=O)N(C)c2nc3c(C(=O)N4CCC5(CC4)CCN(c4ccncc4)C5)cccc3s2)c(C)c1; FALSE
COc1cc(C)c(S(=O)(=O)N(C)c2nc3cccc(C(=O)N4CCC5(CC4)CCN(c4ccncc4)C5)c3n2C)c(C)c1; TRUE
COc1cc(C)c(S(=O)(=O)N(C)c2nc3cccc(C(=O)N4CCC5(CC4)CCN(c4ccncc4)CC5)c3n2C)c(C)c1; TRUE

Now consider the entry below.
input: State whether the measured inhibition at 10 µM reaches 80%, counting equality as reaching it, for COc1cc(C)c(S(=O)(=O)N(C)C(C)c2nc3cccc(C(=O)N4CCC5(CCN(Cc6c(F)cccc6F)CC5)CC4)c3[nH]2)c(C)c1 (centres unmarked)
output: TRUE

###

Could you please report measured inhibition at 10 µM for the items listed next?
- tgt: B1R receptor of the rat (rB1R) (Rattus norvegicus)
- Construct: expressed in transfected cells; host or cells: CHO K1 cells
- Sequence (P97583 1-337): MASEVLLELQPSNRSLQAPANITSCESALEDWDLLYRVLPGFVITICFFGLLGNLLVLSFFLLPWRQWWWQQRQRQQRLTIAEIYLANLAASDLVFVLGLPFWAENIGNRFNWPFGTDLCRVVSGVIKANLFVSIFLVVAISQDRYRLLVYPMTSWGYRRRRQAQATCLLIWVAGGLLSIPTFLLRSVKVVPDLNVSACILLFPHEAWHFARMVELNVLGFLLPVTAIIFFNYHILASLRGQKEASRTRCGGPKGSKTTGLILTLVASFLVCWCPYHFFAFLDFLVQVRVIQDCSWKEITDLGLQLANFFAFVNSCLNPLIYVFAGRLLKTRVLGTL
- experimentDescription: Functional investigation on the bradykinin receptor 1 (B1R), FLIPR Ca2+ assay, rB1R cells
- Format: cell-based
Numbers only, in %.

Answered cases to consult:
CN(Cc1nc2cccc(C(=O)N3CCC4(CC3)CCN(c3ccncc3)CC4)c2[nH]1)C(=O)c1sccc1Cl; 93
COc1cc(C)c(S(=O)(=O)N(C)C(C)c2nc3cccc(C(=O)N4CCC5(CCN(Cc6cccc(C#N)c6)CC5)CC4)c3[nH]2)c(C)c1 (stereo not shown); 101
CN(Cc1nc2ccc(C(=O)N3CCC4(CC3)CCN(c3ccncc3)CC4)cc2[nH]1)S(=O)(=O)c1cccc2ccccc12; 96
COc1cc(C)c(S(=O)(=O)N(C)C(C)c2nc3cccc(C(=O)N4CCC5(CCN(Cc6c(F)cccc6F)CC5)CC4)c3[nH]2)c(C)c1 (stereo not shown); 94
COc1cc(C)c(S(=O)(=O)N(C)C(C)c2nc3cccc(C(=O)N4CCC5(CCN(Cc6c(F)cccc6OC)CC5)CC4)c3[nH]2)c(C)c1 (stereo not shown); 86
COc1cc(C)c(S(=O)(=O)N(C)C(C)c2nc3cccc(C(=O)N4CCC5(CCN(Cc6ccccc6C#N)CC5)CC4)c3[nH]2)c(C)c1 (stereo not shown); 98

Give inhibition at 10 µM for each listed item.
1. COc1cc(C)c(S(=O)(=O)N(C)Cc2nc3cccc(CN4CCC5(CC4)CCN(c4ccncc4)CC5)c3[nH]2)c(C)c1
2. COc1cc(C)c(S(=O)(=O)N(C)C(C)c2nc3cccc(C(=O)N4CCC5(CC4)CCN(C(=O)C4CC4)CC5)c3[nH]2)c(C)c1 (stereo not shown)
3. O=C1c2c(Cl)cccc2CN1Cc1nc2cccc(C(=O)N3CCC4(CC3)CCN(c3ccncc3)C4)c2[nH]1
4. COc1cc(C)c(S(=O)(=O)N(C)Cc2nc3cccc(C(=O)N4CCC5(CCC(N6CC(F)(F)C6)CC5)CC4)c3[nH]2)c(C)c1

output:
[103, 88, 49, 72]

###

- tgt: B1R receptor of the rat (rB1R) (Rattus norvegicus)
- Construct: expressed in transfected cells; host or cells: CHO K1 cells
- experimentDescription: Functional investigation on the bradykinin receptor 1 (B1R), FLIPR Ca2+ assay, rB1R cells
- Type: cell-based
Could you please report measured inhibition at 10 µM for the items listed next?
Give bare numbers, in %.

COc1cc(C)c(S(=O)(=O)N(C)Cc2nc3cccc(C(=O)N4CCC5(CCC(N6CCC6)CC5)CC4)c3[nH]2)c(C)c1; 97
COc1cc(C)c(S(=O)(=O)N(C)C(C)c2nc3cccc(C(=O)N4CCC5(CCN(Cc6ccncc6)CC5)CC4)c3[nH]2)c(C)c1 (stereo not drawn); 92

Give inhibition at 10 µM for each listed item.
1. COc1cc(C)c(S(=O)(=O)N(C)C(C)c2nc3cccc(C(=O)N4CCC5(CC4)CCN(S(=O)(=O)c4ccc(F)cc4F)CC5)c3[nH]2)c(C)c1 (stereo not drawn)
2. COc1cc(C)c(S(=O)(=O)N(C)C(C)c2nc3cccc(C(=O)N4CCC5(CCN(C(=O)c6ccc(C(F)(F)F)cn6)CC5)CC4)c3[nH]2)c(C)c1 (stereo not drawn)
3. COc1cc(C)c(S(=O)(=O)N(C)c2nc3c(C(=O)N4CCC5(CC4)CCN(c4ccncc4)CC5)cccc3s2)c(C)c1

output:
1. 103
2. 89
3. 80

Give inhibition at 10 µM for each listed item.
1. COc1cc(C)c(S(=O)(=O)N(C)C(C)c2nc3cccc(C(=O)N4CCC5(CCN(Cc6c(F)cccc6Cl)CC5)CC4)c3[nH]2)c(C)c1 (stereo not drawn)
2. COc1cc(C)c(S(=O)(=O)N(C)C(C)c2nc3cccc(C(=O)N4CCC5(CCN(Cc6ccc(F)cc6F)CC5)CC4)c3[nH]2)c(C)c1 (stereo not drawn)
3. COc1cc(C)c(S(=O)(=O)N(C)Cc2nc3cccc(C(=O)N4CCC5(CC4)CCN(c4ccncc4)CC5)c3[nH]2)c(C)c1
4. Cc1ccc(Cl)c(S(=O)(=O)N(C)Cc2nc3cccc(C(=O)N4CCC5(CC4)CCN(c4ccncc4)CC5)c3[nH]2)c1Cl

output:
1: 99; 2: 99; 3: 100; 4: 24

###

Could you please report measured inhibition at 10 µM for the items listed next?
- tgt: B1R receptor of the rat (rB1R) (Rattus norvegicus)
- Construct: expressed in transfected cells; host or cells: CHO K1 cells
- Sequence (P97583 1-337): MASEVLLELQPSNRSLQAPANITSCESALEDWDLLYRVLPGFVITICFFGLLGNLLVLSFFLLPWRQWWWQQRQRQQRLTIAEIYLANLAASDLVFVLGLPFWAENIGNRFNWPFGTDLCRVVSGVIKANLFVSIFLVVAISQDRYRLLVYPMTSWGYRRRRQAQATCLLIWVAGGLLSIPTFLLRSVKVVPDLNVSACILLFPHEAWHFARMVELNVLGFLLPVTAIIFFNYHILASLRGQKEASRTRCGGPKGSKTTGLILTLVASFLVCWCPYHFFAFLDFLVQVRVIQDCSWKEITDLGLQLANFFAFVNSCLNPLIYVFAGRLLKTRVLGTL
- experimentDescription: Functional investigation on the bradykinin receptor 1 (B1R), FLIPR Ca2+ assay, rB1R cells
- Assay type: cell-based
- Description: The agonistic or antagonistic action of substances can be quantified on the bradykinin receptor 1 (B1R) of the human and rat species with ectopically expressing cell lines (CHO K1 cells) and with the aid of a Ca^2+-sensitive dyestuff (Fluo-4) in a fluorescent imaging plate reader (FLIPR). […] The agonistic or antagonistic action of substances can be determined on the bradykinin receptor 1 (B1R) of the human and rat species with the following assay. […]
Don't forget the unit after the value.

COc1cc(C)c(S(=O)(=O)N(C)C(C)c2nc3cccc(C(=O)N4CCC5(CC4)CCN(S(=O)(=O)c4ccc(Cl)s4)CC5)c3[nH]2)c(C)c1 (stereo not shown) [I_CC-56]; 101%
COc1cc(C)c(S(=O)(=O)N(C)Cc2nc3cccc(C(=O)N4CCC5(CC4)CCN(c4ccncc4)C5)c3[nH]2)c(C)c1 [I_CC-06]; 102%
COc1cc(C)c(S(=O)(=O)N(C)c2nc3cccc(C(=O)N4CCC5(CC4)C(=O)NCC5c4ccncc4)c3n2C)c(C)c1 (stereo not shown) [I_CC-16]; 82%

Now for another entry.
input: For COc1cc(C)c(S(=O)(=O)N(C)C2(c3nc4cccc(C(=O)N5CCC6(CC5)CCN(c5ccncc5)CC6)c4[nH]3)CC2)c(C)c1 [I_12] , what is its reported inhibition at 10 µM?
output: 92%
